Taken from ChEMBL document CHEMBL4888484.

- Test system: Plasmodium falciparum
- procedure-text: Primary screen in NF54 nanoGlo assay, in single point, at 2uM, 72h; a lower Z score goes with more inhibition
- Format: functional, Erythrocyte
- details: timepoint 72 hour
Screen size: about 150,000 compounds; about 540 (0.36%) showed an effect of 50% or more. Shown is part of a subset that was picked to be rich in strong results.
Recorded Z score, one value per entry.
Answer with a number only.

CCC(=O)Nc1ccc(Oc2c(C)c(C(=O)O)nn2-c2ccccc2CC)c(S(=O)(=O)NCC(C)C)c1: -9.77

Kindly note the recorded Z score for CCc1cccc2c(C3=CCN(C(=O)Nc4cn[nH]c4)CC3)c[nH]c12 , which is 1.44
